B1: KAT8 regulatory NSL complex subunit 2, residues 28 to 91; numbered along this chain, Q9H9L4 (parent)
chain: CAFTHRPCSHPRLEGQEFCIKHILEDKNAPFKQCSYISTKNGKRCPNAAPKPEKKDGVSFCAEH

variants of: B1; assay: abundance fitness (aPCA) (normalised: wild type 0, dead -1); higher = more abundant; growth selection in yeast, the domain comes from the species named; conditions: Homo sapiens
property-measured: abundance fitness
# output: bare number, no unit

I37Q = -0.031
S9P = -0.174
G42Q = -0.008
I20L = -0.057
C34Q = -0.41

What value of abundance fitness has been reported for the following variant? C61S
-0.432

Param item: H64N
-0.441

Param item: K43T
-0.028

Param item: H22G
-0.789

Param item: K32I
-0.135

Param item: K43Y
-0.052
